Test system: store-operated Ca^2+ entry in PLP-B lymphocytes
testName: Store-operated Ca2+ entry after thapsigargin depletion of ER Ca2+ stores in PLP-B lymphocytes
Type: cell-based
measurementSetup: Lymphocyte, 10 μM; PLP-B lymphocytes; % of inhibition (−) or activation; DMSO control 100%; read-out: Effect on amplitude of SOCE Peak
Counter-ions that a name gives are not always drawn.
measuredMetric: inhibition at 10 µM (%)
Write the value in % as a bare number.

                                   compound       measuredmetric  measurednumber
0  COc1cccc(CCOc2ccc(CCn3cnc4ccccc43)cc2)c1  inhibition at 10 µM            28.1
1  c1ccc2c(c1)cnn2CCc1ccc(OC2CCCCO2)cc1 (centres unmarked)  inhibition at 10 µM              33
2  COc1ccc(CCOc2ccccc2CCn2nc(C(F)(F)F)cc2C(F)(F)F)cc1  inhibition at 10 µM              30

inhibition at 10 µM for Oc1ccc(CCn2cnc3cc(F)ccc32)cc1 [12αd, hydrochloride] ?
-2.7

inhibition at 10 µM for COCOc1ccc(CCn2ncc3ccccc32)cc1 ?
-39

inhibition at 10 µM for COc1ccc(COc2ccc(CCn3cnc4ccccc43)cc2)cc1 ?
15.4

inhibition at 10 µM for Oc1ccc(CCn2cnc3ccccc32)cc1 [12αa, hydrochloride] ?
-2.2

inhibition at 10 µM for Oc1ccc(CCn2ncc3ccccc32)cc1 [12αe, hydrochloride] ?
5
